- Tested on: HeLa
- protocol.summary: Cytotoxic activity against HeLa S3 cells
- Type: functional, cell-based
- experimental.conditions: Homo sapiens
Entries and their IC50
Field format: number, assumed µg/mL, no unit text.

| molecule | IC50, µg/mL |
| --- | --- |
| C/C=C/C(=O)OCC1=CCC(C)(C)CC1=O | 4.7 |
| CC(=O)OCC1=CCC(C)(C)CC1=O | 23.5 |
| COc1cccc2c1C(=O)c1c(O)c3c(c(O)c1C2=O)C[C@@](O)(C(C)=O)C[C@@H]3OC1CC(NC(=O)OCC2=CCC(C)(C)CC2=O)C(O)C(C)O1 (stereo not given in full) | 0.0096 |

# context switch: different molecule, same IC50
IN: Indicate the recorded IC50 value for this molecule: CC1(C)CC=C(CI)C(=O)C1
OUT: 2.3
